Data provenance is ChEMBL document CHEMBL4321862.

biological target: Mu-type opioid receptor (Mus musculus, UniProt P42866); experiment: Agonist activity at mouse mu opioid receptor expressed in CHO cells assessed as inhibition of forskolin-induced cAMP formation incubated for 8 min followed by forskolin stimulation by ELISA; format: functional, cell-based; conditions: read-out: EC50
Sequence (P42866 whole entry): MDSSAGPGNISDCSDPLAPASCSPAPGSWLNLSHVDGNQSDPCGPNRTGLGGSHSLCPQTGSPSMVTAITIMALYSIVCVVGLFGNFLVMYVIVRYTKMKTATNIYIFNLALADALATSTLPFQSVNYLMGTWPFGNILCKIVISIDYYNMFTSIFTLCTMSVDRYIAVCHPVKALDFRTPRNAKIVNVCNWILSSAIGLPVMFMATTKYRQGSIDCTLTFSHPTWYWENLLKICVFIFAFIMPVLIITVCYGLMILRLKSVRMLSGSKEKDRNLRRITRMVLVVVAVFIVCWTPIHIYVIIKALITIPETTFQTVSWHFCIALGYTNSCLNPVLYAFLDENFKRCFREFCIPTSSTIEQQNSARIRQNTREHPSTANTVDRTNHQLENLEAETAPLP
property-name: EC50 (nM)
Quick note: give the figure in nM, leave out the unit.

## Input So what's the measured EC50 for this one? "Cl.O=C(N[C@H]1CC[C@@]2(O)[C@H]3Cc4ccc(O)c5c4[C@@]2(CCN3CC2CC2)[C@H]1O5)c1cccc2occc12"
## Output 80

* * *

Item-by-item account of Emax
biological target: Mu-type opioid receptor (Mus musculus); test: Agonist activity at recombinant mouse mu opioid receptor expressed in CHO cell membrane assessed as [35]-GTPgammaS binding incubated for […] by scintillation counting method relative to DAMGO
Quick note: give the figure in %, leave out the unit.

Examples with their reported Emax follow.
{"columns": ["smiles-structure", "unit-label", "Emax"],
 "data": [
  ["Cl.O=C(N[C@H]1CC[C@@]2(O)[C@H]3Cc4ccc(O)c5c4[C@@]2(CCN3CC2CC2)[C@H]1O5)c1coc2ccccc12", "%", 18.7],
  ["Cl.O=C(N[C@H]1CC[C@@]2(O)[C@H]3Cc4ccc(O)c5c4[C@@]2(CCN3CC2CC2)[C@H]1O5)c1cccc2occc12", "%", 10]
]}

Now consider the entry below.
## Input Checklist item: Emax tested on Mu-type opioid receptor (Mus musculus), entry "Cl.O=C(N[C@@H]1CC[C@@]2(O)[C@H]3Cc4ccc(O)c5c4[C@@]2(CCN3CC2CC2)[C@H]1O5)c1ccc2sccc2c1" , value?
## Output 75.4
